System: SF-539 CNS
Experiment: NCI tumour cell line growth inhibition, 48 h; in the data active means GI50 below about 0.43 µM; inactive means the rest
Possible outcomes: t for active, f for inactive

- molecule: "CCCCCCCCCCCCCCCCCC(=O)[O][Sn]([CH2]CCC)([CH2]CCC)[CH2]CCC"
  assigned-category: "t"
- molecule: "Cc1nc(NC(=O)COc2cccc(/C=C3\\COc4ccccc4C3=O)c2)sc1C"
  assigned-category: "f"
- molecule: "COC(=O)c1c2c(c[n+]([O-])c1C)C(=O)C(NCc1ccccc1)=CC2=O"
  assigned-category: "f"
- molecule: "C=CC[Se]C(=O)c1ccccc1OC(C)=O"
  assigned-category: "f"
- molecule: "COc1cc(C2=Nc3c/c(=C\\c4c(O)[nH]c5ccc(Cl)cc45)ccc3=N2)cc(OC)c1OC"
  assigned-category: "f"
- molecule: "CCCCC(SC(=S)N(CC)CC)C(=O)Nc1nc(CC(=O)OCC)cs1 (stereo not drawn)"
  assigned-category: "f"
- molecule: "O=C(/C=C/c1ccccc1O)c1ccccc1"
  assigned-category: "f"
- molecule: "C[CH2][Sn]1([CH2]C)[O]C2C(O)OC(CO)C(O)C2[O]1 (stereo not drawn)"
  assigned-category: "f"
- molecule: "COc1ccc(C2=C(Br)C(=O)OC2)cc1Cl"
  assigned-category: "f"
- molecule: "C=C1CCCC(C)(C)[C@@H]1CC/C(C)=C/Cn1c2cccc(=O)c-2nc2ccccc21"
  assigned-category: "f"
- molecule: "COc1cccc(C2=NN(C(C)=O)C(c3cc(OC)c(OC)c(OC)c3)C2)c1 (stereo not drawn)"
  assigned-category: "f"
- molecule: "COc1cc(-c2nn(C)nc2-c2cc3ccccc3s2)cc(OC)c1OC"
  assigned-category: "t"
- molecule: "[Ce+3].[Cl-].[O-]/N=C(\\c1ccccc1)c1ccccn1.[O-]/N=C(\\c1ccccc1)c1ccccn1.[O-]/N=C(\\c1ccccc1)c1ccccn1"
  assigned-category: "f"

====

Tested on: SNB-75 CNS
Test: NCI tumour cell line growth inhibition, 48 h
Entries and their TGI values follow.
outcome-measure: TGI

- compound: "CCCCCCCCC(=O)CCCCCCCCC(=O)O"
  outcome-measure: "TGI"
  result-value: "> 100 µM"
- compound: "CC12Oc3ccc4ccccc4c3C1c1c(ccc3ccccc13)O2 (stereo unspecified)"
  outcome-measure: "TGI"
  result-value: "> 100 µM"
- compound: "COc1cc(C2=Nc3c/c(=C\\c4c(O)[nH]c5ccc(Cl)cc45)ccc3=N2)cc(OC)c1OC"
  outcome-measure: "TGI"
  result-value: "10.6 µM"
- compound: "O=CC(O)C(O)C(O)COc1cc(CO)cc2c1C(=O)c1ccccc1C2=O (stereo unspecified)"
  outcome-measure: "TGI"
  result-value: "> 100 µM"
- compound: "CCOC(=O)/C(=C/c1cc(OC)ccc1OC)CC(=O)O"
  outcome-measure: "TGI"
  result-value: "> 100 µM"
- compound: "COC(=O)c1c2c(c[n+]([O-])c1C)C(=O)C(NCc1ccccc1)=CC2=O"
  outcome-measure: "TGI"
  result-value: "3.27 µM"

====

Test system: RXF 393 renal
Test: NCI tumour cell line growth inhibition, 48 h; in the data active = GI50 below about 0.43 µM; inactive = the rest
Possible outcomes: 1.0 for active, 0.0 for inactive

- molecule: "CCS(=O)(=O)c1ccc(OC)c(Nc2ncc(-c3cccc(-c4ccccc4F)c3)o2)c1"
  assigned-category: 0.0
- molecule: "O=C(O[C@H]1CN[C@H](C#Cc2cc3ncnc(Nc4ccc(Cc5ccccc5)cc4)c3s2)C1)N1CCOCC1"
  assigned-category: 0.0
- molecule: "COc1cc2c3c(n(CCCN=[N+]=[N-])c(=O)c2cc1OC)-c1ccc(N)cc1C3=O"
  assigned-category: 1.0
- molecule: "O=C(Nc1cccnc1)c1cccs1"
  assigned-category: 0.0
- molecule: "COc1cccc(C2=NN(C(C)=O)C(c3cc(OC)c(OC)c(OC)c3)C2)c1 (centres undefined)"
  assigned-category: 0.0
- molecule: "CCCCCCCCCCCCCCCCCC(=O)[O][Sn]([CH2]CCC)([CH2]CCC)[CH2]CCC"
  assigned-category: 1.0
- molecule: "Nc1cccc(-c2nc3sccn3c2-c2ccnc(NCCCNS(=O)(=O)c3ccc(C(F)(F)F)cc3)n2)c1"
  assigned-category: 0.0
- molecule: "CCC[CH2][Sn]([CH2]CCC)([O]C(=O)c1cc(OC)c(OC)c(OC)c1)[O]C(=O)c1cc(OC)c(OC)c(OC)c1"
  assigned-category: 1.0
- molecule: "O=C(/C=C\\c1cccc([N+](=O)[O-])c1)c1ccccc1"
  assigned-category: 0.0
